Reference source for all entries: ChEMBL document CHEMBL3120119

experiment: Cytotoxicity against mouse RAW264.7 cells at 50 uM after 72 hrs by MTT assay; type: cell-based; conditions: read-out: INH
Give measured cytotoxicity at 72 h, 50 µM for each item. Keep answers brief.
Numbers only, in %.

For each of the items listed, what is its cytotoxicity at 72 h, 50 µM?
1. NC(=O)c1c(NC(=O)c2ccc([N+](=O)[O-])s2)sc2c1CCN(C(=S)Nc1ccc(F)cc1)C2
2. NC(=O)c1c(NC(=O)c2ccc([N+](=O)[O-])o2)sc2c1CCN(C(=O)Nc1ccc([N+](=O)[O-])cc1)C2
3. NC(=O)c1c(NC(=O)c2ccc([N+](=O)[O-])s2)sc2c1CCN(C(=S)NCc1ccccc1)C2
4. NC(=O)c1c(NC(=O)c2ccc([N+](=O)[O-])s2)sc2c1CCN(C(=S)Nc1ccc([N+](=O)[O-])cc1)C2

Response:
26.8
36.1
22.2
28.6

For each of the items listed, what is its cytotoxicity at 72 h, 50 µM?
1. COc1ccc(S(=O)(=O)N2CCc3c(sc(NC(=O)c4ccc([N+](=O)[O-])s4)c3C(N)=O)C2)cc1
2. NC(=O)c1c(NC(=O)c2ccc([N+](=O)[O-])o2)sc2c1CCN(C(=S)Nc1ccc([N+](=O)[O-])cc1)C2
3. NC(=O)c1c(NC(=O)c2ccc([N+](=O)[O-])s2)sc2c1CCN(S(=O)(=O)c1ccc(Br)cc1)C2
4. NC(=O)c1c(NC(=O)c2ccc([N+](=O)[O-])s2)sc2c1CCN(S(=O)(=O)c1ccc(F)cc1)C2

Response:
[24.5, 28.2, 26.8, 30.2]

* * *

test: Cytotoxicity against mouse RAW264.7 cells at 50 uM after 72 hrs by MTT assay; type: cell-based; details: read-out: INH
Give measured cytotoxicity at 72 h, 50 µM for each item. Keep answers brief.
Answers are plain numbers, in %.

A selection of reference data follows.
compound_string	cytotoxicity at 72 h, 50 µM, %
NC(=O)c1c(NC(=O)c2ccc([N+](=O)[O-])s2)sc2c1CCN(C(=S)Nc1ccc(Cl)cc1)C2	21.4
NC(=O)c1c(NC(=O)c2ccc([N+](=O)[O-])o2)sc2c1CCN(C(=S)Nc1ccc(F)cc1)C2	28.1
COc1ccc(NC(=O)N2CCc3c(sc(NC(=O)c4ccc([N+](=O)[O-])s4)c3C(N)=O)C2)cc1	20.9

The record that follows has no cytotoxicity at 72 h, 50 µM shown yet.
Entry under test: COc1ccc(S(=O)(=O)N2CCc3c(sc(NC(=O)c4ccc([N+](=O)[O-])o4)c3C(N)=O)C2)cc1 . Its cytotoxicity at 72 h, 50 µM was 19.4

* * *

Give measured cytotoxicity at 72 h, 50 µM for each item. Keep answers brief.
assay: Cytotoxicity against mouse RAW264.7 cells at 50 uM after 72 hrs by MTT assay; assay type: cell-based; conditions: read-out: INH
One number for each entry, in %.

A selection of reference data follows.
compound_string	result_unit	observed_value
NC(=O)c1c(NC(=O)c2ccc([N+](=O)[O-])s2)sc2c1CCN(C(=O)Nc1ccc([N+](=O)[O-])cc1)C2	%	33.6
NC(=O)c1c(NC(=O)c2ccc([N+](=O)[O-])o2)sc2c1CCN(C(=S)NCc1ccccc1)C2	%	18.1
NC(=O)c1c(NC(=O)c2ccc([N+](=O)[O-])s2)sc2c1CCN(C(=O)Nc1ccc(Cl)cc1)C2	%	24.4
NC(=O)c1c(NC(=O)c2ccc([N+](=O)[O-])s2)sc2c1CCN(S(=O)(=O)c1ccc([N+](=O)[O-])cc1)C2	%	29.2
NC(=O)c1c(NC(=O)c2ccc([N+](=O)[O-])o2)sc2c1CCN(C(=O)NCc1ccccc1)C2	%	24.3
NC(=O)c1c(NC(=O)c2ccc([N+](=O)[O-])o2)sc2c1CCN(C(=S)Nc1ccc(Cl)cc1)C2	%	24.7

For each of the items listed, what is its cytotoxicity at 72 h, 50 µM?
1. NC(=O)c1c(NC(=O)c2ccc([N+](=O)[O-])s2)sc2c1CCN(C(=O)NCc1ccccc1)C2
2. NC(=O)c1c(NC(=O)c2ccc([N+](=O)[O-])o2)sc2c1CCN(S(=O)(=O)c1ccc(F)cc1)C2

Response:
[26.1, 22.1]
